Measured IC50 values are reported for all entries that follow.
Biological target: CDK6/CyclinD3 (Homo sapiens, UniProt Q00534)
Construct: purchased Carna 04-107
Sequence (Q00534 whole entry): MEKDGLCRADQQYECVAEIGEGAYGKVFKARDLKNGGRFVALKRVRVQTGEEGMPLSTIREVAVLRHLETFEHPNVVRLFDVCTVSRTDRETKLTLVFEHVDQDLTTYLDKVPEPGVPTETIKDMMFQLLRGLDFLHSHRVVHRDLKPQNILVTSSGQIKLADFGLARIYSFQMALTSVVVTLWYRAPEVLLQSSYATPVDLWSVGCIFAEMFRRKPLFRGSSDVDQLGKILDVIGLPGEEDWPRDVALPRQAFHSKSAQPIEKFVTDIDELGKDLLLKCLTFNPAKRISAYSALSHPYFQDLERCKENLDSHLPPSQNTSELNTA
Sequence (P30281 whole entry partner): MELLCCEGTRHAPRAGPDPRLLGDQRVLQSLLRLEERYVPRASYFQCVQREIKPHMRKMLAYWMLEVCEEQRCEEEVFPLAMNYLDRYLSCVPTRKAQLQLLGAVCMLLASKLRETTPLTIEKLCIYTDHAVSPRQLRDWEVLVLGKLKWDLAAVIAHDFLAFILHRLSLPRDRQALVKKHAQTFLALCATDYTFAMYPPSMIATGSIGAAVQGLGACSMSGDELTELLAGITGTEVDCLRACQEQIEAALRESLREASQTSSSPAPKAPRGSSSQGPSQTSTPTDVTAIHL
Assay: Assay for inhibition of CDK6/CyclinD3 (Caliper microfluidic kinase assay)
Format: biochemical
Settings: CDK6/CyclinD3, 300 μM ATP

Example entries and their recorded answers appear below.
INSERT INTO results (compound, tested_on, measured_value) VALUES
  ('C=C(C)c1cnn2ccc(-c3nc(Nc4ccc(CN5CCN(CC)CC5)cn4)ncc3F)cc12', 'CDK6/CyclinD3 (Homo sapiens, UniProt Q00534)', '100 to 1000 nM'),
  ('CC(C)c1cnn2ccc(-c3ccnc(Nc4ccc(N5CCC(N6CCC6)CC5=O)cn4)n3)cc12 (stereo not drawn)', 'CDK6/CyclinD3 (Homo sapiens, UniProt Q00534)', '10 to 100 nM');

Field: next compound
Dear colleague, I am looking for the recorded IC50 of the following compound: CC(C)c1cnn2ccc(-c3nc(Nc4ccc(N5CCN(C)CCC5=O)cn4)ncc3F)cc12
10 to 100 nM
